Listed molecules paired with reported inhibition
- test.summary: inhibitors of TWEAK-Fn14 signaling, primary screen, luciferase reporter cells, uHTS (AID 1159606)
- study.conditions: TWEAK-stimulated Fn14 reporter cells, luciferase luminescence, 8 h; at 10 µM; stronger effect = higher value
The whole screen tested about 360,000 compounds, of which about 7,300 (2%) were called active. Many of the other results were omitted from the sample, so actives are more common in it than they were.
# value in %; strip the unit string

Would you please look over these solved cases?
>>> observed_measurement("CCc1nc2cccnc2n1-c1ccc(C(=O)O)cc1")
2.68
>>> observed_measurement("O=C1NC[C@H](CCCCN2C[C@H](Cc3ccccc3)N(Cc3ccccc3)C(=O)C2=O)N(CCc2ccc(O)cc2)C1=O")
-9.13
>>> observed_measurement("CC1=CC(=C(C#N)c2nc3ccccc3s2)C=C(C)N1c1ccc(F)cc1F")
55.1
>>> observed_measurement("CC(C)[C@H](NC(=O)c1ccccc1F)C(=O)Nc1cccc(S(=O)(=O)N2CCOCC2)c1")
12.8
>>> observed_measurement("O=[N+]([O-])c1ccc(O)c(/C=N/Nc2ccccc2[N+](=O)[O-])c1")
71.5

GET /values?readout=inhibition&item= `CCCNC(=O)c1cc2c(c(-c3cccc(-c4ccc(C#N)cc4)c3)n1)[C@@H](CCO)N(C(=O)CC)C2`
-20.1

Request the reported inhibition associated with `Cc1ccc(N(CC(=O)Nc2cc(C)cc(C)c2)S(=O)(=O)c2cccc3nonc23)cc1`
9.38

Quick check: inhibition of CCOC(=O)C1CCCN(C(=O)c2cc(-c3cccs3)oc2C)CC1 (stereo not given) ?
31.6

What measured inhibition goes with `Cc1ccc(NC(=O)CSCC(=O)N2CCOCC2)cc1` ?
-11.3

Give the measured inhibition of `Cc1ccc(S(=O)(=O)N(CC(=O)Nc2cccc([N+](=O)[O-])c2)Cc2ccc(Cl)cc2)cc1` .
51.2

Give the measured inhibition of CC1(C)CC(=O)C2=C(C1)N=C1SCCC(=O)N1C2c1ccc(C(F)(F)F)cc1 (stereo not given) .
1.88

Which inhibition value is on record for `Nc1nnnn1/N=C/c1cc([N+](=O)[O-])ccc1O` ?
-1.63

What value of inhibition has been recorded for this entry: CCCCn1nnnc1C(c1cc2ccccc2o1)N(C)Cc1ccc(Cl)c(Cl)c1 (stereo not given)
-0.38

Quick check: inhibition of `COc1ccc(N(CC(=O)Nc2ccc(C)cc2C)S(=O)(=O)c2ccccc2[N+](=O)[O-])c(OC)c1` ?
0.97

I have this molecule here, `Cc1nn(-c2ccc(F)cc2)c(Cl)c1/C=C(/CCC(=O)O)c1nc2ccccc2s1` , and I need its recorded inhibition.
-0.77

Could you tell me which inhibition is on file for `COC(=O)[C@]12CCCCC=C1N(CCC1=CCCCC1)C(=O)[C@H](CC(=O)N1CCSCC1)C2` ?
-9.15

# input molecule: `COCCCNC(=O)Cc1ccc(-n2c(C)nc3cccnc32)cc1` ; wanted: its inhibition
84.3

Give the measured inhibition of Cc1ccc(-c2ccc(CN3C(C)C(=O)N(Cc4cn(CCC5OCCCO5)nn4)CCS3(=O)=O)cc2)cc1 (stereo not given) .
5.69

Please report the recorded inhibition for `COc1ccc(C)cc1S(=O)(=O)N(CC(=O)Nc1cccc([N+](=O)[O-])c1)c1ccc(C)cc1` .
61.9

I would be grateful if you could share the reported inhibition for `COc1ccc2c(c1)CCC/C2=N\OC(=O)c1ccccc1F` .
36.7

Reference for the values: PubChem BioAssay AID1159606
